src = paper PMC3684770

Entries and their measured pIC50 follow.
- Tested on: 1321N1 astrocyte cell line
- ASSAY_INFO: 1321N1 oxidative stress assay (serum withdrawal, DCF)
- STATED_CONDITIONS: Homo sapiens, 1321-N1, read-out: 1321N1 oxidative stress assay IC50
pIC50: −log10 of the molar value. Structures can show the parent of a compound that is named as a salt.
PARAMETER_MEASURED: pIC50

• CC1(C)C(=O)C=C[C@]2(C)[C@H]3CC[C@@]4(C)[C@H](c5ccoc5)OC(=O)[C@H]5O[C@]54[C@]3(C)[C@H](O)C[C@@H]12 = 5.63
• CC1=C2C(=CO[C@H](C)[C@H]2C)C(O)=C(C(=O)O)C1=O = 6.47
• O=C(/C=C/c1ccc(O)cc1)c1ccc(O)cc1O = 5.75
• O=c1c2ccccc2[se]n1-c1ccccc1 [Ebselen, reference compound] = 6.71
• CN1CCc2cccc3c2[C@H]1Cc1ccc(O)c(O)c1-3 [Apomorphine hydrochloride, reference compound] = 5.77
• Oc1ccc(O)cc1 [Hydroquinone, reference compound] = 5.47
• CC(=O)CCC(=O)O = 5.48
• O=C(CCBr)N1CCN(C(=O)CCBr)CC1 [Pipobroman, reference compound] = 5.50
• CC(C)N(C(=O)CCl)c1ccccc1 = 6.08
• CC(=O)Oc1ccc(O)cc1 = 6.53
• CC(=O)OC1CC[C@@]2(C)C(CC[C@H]3[C@@H]4CC=C(C(C)=O)[C@@]4(C)C(=O)C[C@@H]32)C1 (stereo partly shown) = 4.91
• C=C1CC[C@@H]2[C@](C)(CO)[C@H](O)CC[C@@]2(C)[C@@H]1C/C=C1/C(=O)OC[C@H]1O [Andrographolide] = 6.30
• COc1ccc(/C=C/C(=O)c2ccccc2)cc1 = 5.44
• C=C1C(=O)O[C@H]2[C@H]1CC/C(C)=C/CC[C@@]1(C)O[C@@H]21 [Parthenolide] = 4.55
• CC1(C)C2CC(=O)O[C@@]3(C)C4=CC(=O)O[C@@H](c5ccoc5)[C@]4(C)CCC3[C@@]2(C)C=C[C@H]1O (stereo partly shown) = 5.79
• COc1ccc2c(c1)OC/C(=C/c1ccc(OC)c(OC)c1)C2=O = 6.55
• C=CC(C1=CC(=O)C=CC1=O)c1ccccc1 (stereo not shown) = 4.19
• C=C(CC)C(=O)c1ccc(OCC(=O)O)c(Cl)c1Cl [Ethacrynic acid, reference compound] = 5.52
• CCc1cccc(CC)c1N(COC)C(=O)CCl = 5.71

---

- Test system: C6 astrocyte cell line
- ASSAY_INFO: C6 oxidative stress assay (serum withdrawal, DCF)
- STATED_CONDITIONS: Rattus norvegicus, Astrocyte, read-out: C6 oxidative stress assay IC50
pIC50: −log10 of the molar value.
PARAMETER_MEASURED: pIC50

• COc1ccc(/C=C/C(=O)c2ccccc2)cc1 [4-Methoxychalcone] = 5.45
• C=C1CC[C@@H]2[C@](C)(CO)[C@H](O)CC[C@@]2(C)[C@@H]1C/C=C1/C(=O)OC[C@H]1O [Andrographolide] = 6.72
• COc1cccc(O)c1O [3-Methoxycatechol] = 5.92
• CC1(C)C2CC(=O)O[C@@]3(C)C4=CC(=O)O[C@@H](c5ccoc5)[C@]4(C)CCC3[C@@]2(C)C=C[C@H]1O (stereo partly drawn) [Deoxyandirobin lactone] = 5.54
• CC1=C2C(=CO[C@H](C)[C@H]2C)C(O)=C(C(=O)O)C1=O [Citrinin] = 4.70
• COc1cc(O)cc(OC)c1OC [Antiarol] = 5.52

---

- ASSAY_INFO: Pharmacokinetic analysis in C57Bl/6 mice
- Format: in vivo, mouse
- STATED_CONDITIONS: C57Bl/6, mouse, brain / plasma; iv 1 mg/kg; read-out: brain uptake (AUCinfinity brain / AUCinfinity plasma)
- Protocol: Pharmacokinetic studies were performed by Pharmidex (London, UK). […] All concentrations were calculated with reference to the relevant standard curve. An extraction buffer (EB) solution of acetonitrile with 0.1% formic acid (Fisher Scientific, HPLC grade) and 500 ng/ml of propranolol as the internal standard (IS) was used for in all extraction protocols.
PARAMETER_MEASURED: Kp

• CN1CCc2cccc3c2[C@@H]1Cc1ccc(O)c(O)c1-3 [S[+]-apomorphine] = 2.28

---

- Tested on: 1321N1 astrocyte cell line
- ASSAY_INFO: 1321N1 oxidative stress assay (serum withdrawal, DCF)
- STATED_CONDITIONS: Homo sapiens, 1321-N1, read-out: 1321N1 oxidative stress assay IC50
pIC50: −log10 of the molar value.
Reported pIC50 is given for each of the following compounds.
PARAMETER_MEASURED: pIC50

- Cc1[nH]c2ccccc2c1CN(C)C: 4.96
- Cc1cc(O)c(C)c(O)c1C(=O)O: 5.49
- CC1=CC(=O)C(C(C)C)=CC1=O: 4.96
- OC[C@H]1O[C@@H](n2cnc3c(NCc4ccco4)ncnc32)[C@H](O)[C@@H]1O [Kinetin riboside]: 6.61
- O=C1C=C2C=C[C@@H]3C[C@@]2(O1)[C@H]1CCCCN31: 4.74

---

- Tested on: C6 astrocyte cell line
- ASSAY_INFO: C6 oxidative stress assay (serum withdrawal, DCF)
- STATED_CONDITIONS: minimum dose at which toxicity was observed
Where a name gives a salt, the structure may show the parent alone.
PARAMETER_MEASURED: C6 oxidative stress assay Toxic dose

• CC(=O)OC1CC[C@@]2(C)C(CC[C@H]3[C@@H]4CC=C(C(C)=O)[C@@]4(C)C(=O)C[C@@H]32)C1 (stereo partly shown) = None
• CN1CCc2cccc3c2[C@H]1Cc1ccc(O)c(O)c1-3 [Apomorphine hydrochloride, reference compound] = None
• C=CC(C1=CC(=O)C=CC1=O)c1ccccc1 (stereo not shown) = None
• C=C(C)/C=C1/C=CC(=O)C(C)=C1 = none
• CC1(C)C2CC(=O)O[C@@]3(C)C4=CC(=O)O[C@@H](c5ccoc5)[C@]4(C)CCC3[C@@]2(C)C=C[C@H]1O (stereo partly shown) = None
• C=C1CC[C@@H]2[C@](C)(CO)[C@H](O)CC[C@@]2(C)[C@@H]1C/C=C1/C(=O)OC[C@H]1O [Andrographolide] = 10 µM
• CC1=C2C(=CO[C@H](C)[C@H]2C)C(O)=C(C(=O)O)C1=O = none
• S=C=NCc1ccccc1 [Benzyl isothiocyanate] = none
• CCCCCc1c2c(cc(O)c1C(=O)O)OC(=O)c1c(cc(OC)cc1C(=O)CCCC)O2 = none
• O=C(CC[N+](=O)[O-])OC[C@H]1O[C@@H](O)[C@H](OC(=O)CC[N+](=O)[O-])[C@@H](OC(=O)CC[N+](=O)[O-])[C@@H]1OC(=O)CC[N+](=O)[O-] = none
• COC(=O)[C@H](O)[C@H]1C(C)(C)[C@H](OC(C)=O)[C@@H]2CC3=C4CC(=O)O[C@@H](c5ccoc5)[C@]4(C)CC[C@@H]3[C@@]1(C)C2=O [Swietenolide 3 acetate] = none
• CC1(C)C(=O)C=C[C@]2(C)[C@H]3CC[C@@]4(C)[C@H](c5ccoc5)OC(=O)[C@H]5O[C@]54[C@]3(C)[C@H](O)C[C@@H]12 = None
• COc1ccc2c(c1)OC/C(=C/c1ccc(OC)c(OC)c1)C2=O = none

---

- Test system: Nrf2-ARE pathway
- ASSAY_INFO: ARE reporter assay in CHO 4xARE-TK-GFP cells (Spectrum library hits)
- STATED_CONDITIONS: Cricetulus griseus, CHO, 24 h, read-out: Fold GFP induction
PARAMETER_MEASURED: maximal fold induction

* O=C1C=C2C=C[C@@H]3C[C@@]2(O1)[C@H]1CCCCN31 | 3
* Cc1[nH]c2ccccc2c1CN(C)C | 2.27
* C=C(C)C1(O)OC(=O)C=C1OC (centres unmarked) | 2.64
* C=C1C(=O)O[C@H]2[C@H]1CC/C(C)=C/CC[C@@]1(C)O[C@@H]21 [Parthenolide] | 2.77
* COc1ccc2c(c1)OC/C(=C/c1ccc(OC)c(OC)c1)C2=O | 1.99

---

- Test system: NSC34 cells
- ASSAY_INFO: NSC34 oxidative stress assay (serum withdrawal, DCF)
- STATED_CONDITIONS: Mus musculus, NSC-34, 24 h, read-out: NSC34 oxidative stress assay Max reduction
PARAMETER_MEASURED: Emax

* CC1=C2C(=CO[C@H](C)[C@H]2C)C(O)=C(C(=O)O)C1=O | 0%
* COC(=O)[C@H](O)[C@H]1C(C)(C)[C@H](OC(C)=O)[C@@H]2CC3=C4CC(=O)O[C@@H](c5ccoc5)[C@]4(C)CC[C@@H]3[C@@]1(C)C2=O [Swietenolide 3 acetate] | 0%
* C=C1CC[C@@H]2[C@](C)(CO)[C@H](O)CC[C@@]2(C)[C@@H]1C/C=C1/C(=O)OC[C@H]1O [Andrographolide] | 0%
* O=c1c2ccccc2[se]n1-c1ccccc1 [Ebselen, reference compound] | -80%
* C=C(CC)C(=O)c1ccc(OCC(=O)O)c(Cl)c1Cl [Ethacrynic acid, reference compound] | -30%
* COc1ccc2c(c1)OC/C(=C/c1ccc(OC)c(OC)c1)C2=O | -60%
* C=C(C)/C=C1/C=CC(=O)C(C)=C1 | -25%
* CC1=CC(=O)C(C(C)C)=CC1=O | 0%
* CC(=O)OC1CC[C@@]2(C)C(CC[C@H]3[C@@H]4CC=C(C(C)=O)[C@@]4(C)C(=O)C[C@@H]32)C1 (some centres unmarked) | 0%
* COc1ccc(/C=C/C(=O)c2ccccc2)cc1 | 24%
* CCCCCc1c2c(cc(O)c1C(=O)O)OC(=O)c1c(cc(OC)cc1C(=O)CCCC)O2 | -26%
* OC[C@H]1O[C@@H](n2cnc3c(NCc4ccco4)ncnc32)[C@H](O)[C@@H]1O [Kinetin riboside] | 0%
* Cc1[nH]c2ccccc2c1CN(C)C | -30%
* C=C(C)C1(O)OC(=O)C=C1OC (centres unmarked) | 9%
* CC(=O)Oc1ccc(O)cc1 | -70%
* Cc1cc(O)c(C)c(O)c1C(=O)O | -12%
* CC1(C)C2CC(=O)O[C@@]3(C)C4=CC(=O)O[C@@H](c5ccoc5)[C@]4(C)CCC3[C@@]2(C)C=C[C@H]1O (some centres unmarked) | 0%
